- Measured On: Carbonic anhydrase 1 (Homo sapiens, UniProt P00915)
- Sequence (P00915 whole entry): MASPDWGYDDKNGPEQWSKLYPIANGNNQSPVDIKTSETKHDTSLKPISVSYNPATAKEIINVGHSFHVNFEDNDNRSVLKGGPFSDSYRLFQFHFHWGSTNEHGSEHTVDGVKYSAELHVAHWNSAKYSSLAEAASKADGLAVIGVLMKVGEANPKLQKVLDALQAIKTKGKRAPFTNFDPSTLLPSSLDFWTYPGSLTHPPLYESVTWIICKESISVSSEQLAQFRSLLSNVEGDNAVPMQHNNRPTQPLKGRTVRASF
- Assay: Inhibition of recombinant human erythrocyte cytosolic carbonic anhydrase 1 by stopped-flow CO2 hydration assay
Label 1.0 when Ki < 200 nM; otherwise 0.0.

Q: Hi there! Is Ki for NS(=O)(=O)c1ccc(-c2nc3scc(-c4cccc(Br)c4)n3n2)cc1 below 200 nM, do you know?
Result: 0.0

Q: State whether 200 nM exceeds Ki recorded for COc1ccc(-c2cn3nc(-c4ccc(S(N)(=O)=O)cc4)sc3n2)cc1 .
Result: 0.0

Q: Consider NS(=O)(=O)c1ccc(-c2nn3cc(-c4ccccc4)nc3s2)cc1 . Does its Ki lie strictly below 200 nM?
Result: 0.0

Q: # check: Ki < 200 nM for NS(=O)(=O)c1ccc(-c2nn3cc(-c4ccc([N+](=O)[O-])cc4)nc3s2)cc1
Result: 0.0

Q: Dear colleague, could you confirm whether Ki of NS(=O)(=O)c1ccc(-c2nn3cc(-c4ccc(Br)cc4)nc3s2)cc1 falls below 200 nM? Thanks.
Result: 0.0

Q: Consider the compound Cc1ccc(-c2cn3nc(-c4ccc(S(N)(=O)=O)cc4)sc3n2)cc1 . Is its Ki strictly less than 200 nM?
Result: 0.0

Q: Is Ki of NS(=O)(=O)c1ccc(-c2nc3scc(-c4ccc(Cl)cc4)n3n2)cc1 strictly below 200 nM?
Result: 0.0

Q: Ki strictly < 200 nM for this compound? NS(=O)(=O)c1ccc(-c2nc3scc(-c4ccccc4)n3n2)cc1
Result: 1.0

Q: Consider NS(=O)(=O)c1ccc(-c2nc3scc(-c4ccc(-c5ccccc5)cc4)n3n2)cc1 . Does its Ki lie strictly below 200 nM?
Result: 1.0

Q: In plain terms, does NS(=O)(=O)c1ccc(-c2nn3cc(-c4ccc(F)cc4)nc3s2)cc1 come in under 200 nM for Ki?
Result: 0.0

Q: Quick check: Ki of NS(=O)(=O)c1ccc(-c2nn3cc(-c4ccc(-c5ccccc5)cc4)nc3s2)cc1 under 200 nM?
Result: 1.0

Q: Consider the compound NS(=O)(=O)c1ccc(-c2nn3cc(-c4ccc(Cl)cc4)nc3s2)cc1 . Is its Ki strictly less than 200 nM?
Result: 0.0

Q: Consider the compound Cc1ccc(-c2csc3nc(-c4ccc(S(N)(=O)=O)cc4)nn23)cc1 . Is its Ki strictly less than 200 nM?
Result: 1.0

Q: State whether 200 nM exceeds Ki recorded for COc1ccc(-c2csc3nc(-c4ccc(S(N)(=O)=O)cc4)nn23)cc1 .
Result: 1.0

Q: hey, is Ki for NS(=O)(=O)c1ccc(-c2nn3cc(-c4cccc([N+](=O)[O-])c4)nc3s2)cc1 lower than 200 nM or not?
Result: 0.0

Q: Threshold test, Ki < 200 nM: NS(=O)(=O)c1ccc(-c2nc3scc(-c4ccc(F)cc4)n3n2)cc1
Result: 0.0

Q: # strict comparison: is reported Ki < 200 nM? input = NS(=O)(=O)c1ccc(-c2nc3scc(-c4ccc(Br)cc4)n3n2)cc1
Result: 0.0

Q: hey, is Ki for NS(=O)(=O)c1ccc(-c2nc3scc(-c4ccc([N+](=O)[O-])cc4)n3n2)cc1 lower than 200 nM or not?
Result: 0.0

Q: In plain terms, does NS(=O)(=O)c1ccc(-c2nn3cc(-c4cccc(Br)c4)nc3s2)cc1 come in under 200 nM for Ki?
Result: 0.0

Q: Hello, is Ki of the following compound strictly smaller than 200 nM? NS(=O)(=O)c1ccc(-c2nc3scc(-c4cccc([N+](=O)[O-])c4)n3n2)cc1
Result: 1.0

* * *

- Measured On: Carbonic anhydrase 2 (Homo sapiens)
- Assay: Inhibition of recombinant human erythrocyte cytosolic carbonic anhydrase 2 by stopped-flow CO2 hydration assay
Sorting guide: entries reporting Ki beneath 300 nM go in the MET pile, the rest go in the NOT MET pile.

Q: Would you kindly verify if Ki of NS(=O)(=O)c1ccc(-c2nc3scc(-c4ccc([N+](=O)[O-])cc4)n3n2)cc1 is strictly less than 300 nM?
Result: NOT MET

Q: Please indicate whether the reported Ki of NS(=O)(=O)c1ccc(-c2nn3cc(-c4ccc(Br)cc4)nc3s2)cc1 is strictly below 300 nM.
Result: NOT MET

Q: # check: Ki < 300 nM for NS(=O)(=O)c1ccc(-c2nn3cc(-c4ccc(Cl)cc4)nc3s2)cc1
Result: MET

Q: Quick check: Ki of NS(=O)(=O)c1ccc(-c2nn3cc(-c4ccccc4)nc3s2)cc1 under 300 nM?
Result: MET

Q: Threshold test, Ki < 300 nM: COc1ccc(-c2cn3nc(-c4ccc(S(N)(=O)=O)cc4)sc3n2)cc1
Result: NOT MET

Q: Field: below-cutoff. Rule: recorded Ki strictly less than 300 nM. Subject: NS(=O)(=O)c1ccc(-c2nn3cc(-c4ccc([N+](=O)[O-])cc4)nc3s2)cc1
Result: NOT MET

Q: Say whether its Ki is strictly beneath 300 nM. Entry: NS(=O)(=O)c1ccc(-c2nc3scc(-c4ccc(-c5ccccc5)cc4)n3n2)cc1
Result: MET

Q: Quick check: does NS(=O)(=O)c1ccc(-c2nc3scc(-c4ccc(Cl)cc4)n3n2)cc1 have Ki under 300 nM?
Result: NOT MET

Q: Lab note: confirm whether the reported Ki for this compound is below 300 nM, equality not counting. compound: NS(=O)(=O)c1ccc(-c2nn3cc(-c4cccc(Br)c4)nc3s2)cc1
Result: MET

Q: Is the reported Ki for NS(=O)(=O)c1ccc(-c2nn3cc(-c4cccc([N+](=O)[O-])c4)nc3s2)cc1 strictly below 300 nM?
Result: MET

Q: Would you kindly verify if Ki of NS(=O)(=O)c1ccc(-c2nc3scc(-c4ccc(Br)cc4)n3n2)cc1 is strictly less than 300 nM?
Result: NOT MET

Q: For Cc1ccc(-c2cn3nc(-c4ccc(S(N)(=O)=O)cc4)sc3n2)cc1 , is the recorded Ki below the cut-off of 300 nM?
Result: MET

Q: Threshold test, Ki < 300 nM: COc1ccc(-c2csc3nc(-c4ccc(S(N)(=O)=O)cc4)nn23)cc1
Result: MET

Q: Could you please tell me whether Ki recorded for Cc1ccc(-c2csc3nc(-c4ccc(S(N)(=O)=O)cc4)nn23)cc1 is less than 300 nM?
Result: MET

Q: hey, is Ki for NS(=O)(=O)c1ccc(-c2nn3cc(-c4ccc(F)cc4)nc3s2)cc1 lower than 300 nM or not?
Result: MET

Q: In plain terms, does NS(=O)(=O)c1ccc(-c2nc3scc(-c4cccc([N+](=O)[O-])c4)n3n2)cc1 come in under 300 nM for Ki?
Result: MET

Q: In plain terms, does NS(=O)(=O)c1ccc(-c2nn3cc(-c4ccc(-c5ccccc5)cc4)nc3s2)cc1 come in under 300 nM for Ki?
Result: NOT MET

Q: Would you kindly verify if Ki of NS(=O)(=O)c1ccc(-c2nc3scc(-c4cccc(Br)c4)n3n2)cc1 is strictly less than 300 nM?
Result: NOT MET

Q: Strictly below 300 nM: is that where Ki of NS(=O)(=O)c1ccc(-c2nc3scc(-c4ccccc4)n3n2)cc1 sits?
Result: MET

* * *

Record form. Attribute: pKi. Fill in for each entry.
- Measured On: UniProt:Q16790
- Assay: Inhibition of recombinant human membrane bound carbonic anhydrase 9 by stopped-flow CO2 hydration assay
Please express pKi as -log10 of the molar concentration.

Q: Let me know recorded pKi for NS(=O)(=O)c1ccc(-c2nn3cc(-c4ccc([N+](=O)[O-])cc4)nc3s2)cc1 , thanks.
Result: 6.51

Q: Give the reported pKi for this molecule. COc1ccc(-c2cn3nc(-c4ccc(S(N)(=O)=O)cc4)sc3n2)cc1
Result: 5.55

Q: Annotate the molecule NS(=O)(=O)c1ccc(-c2nc3scc(-c4ccc([N+](=O)[O-])cc4)n3n2)cc1 with its measured pKi.
Result: 6.72

Q: Answer with the recorded pKi for the molecule listed here: NS(=O)(=O)c1ccc(-c2nc3scc(-c4cccc(Br)c4)n3n2)cc1
Result: 5.96

Q: Using known records, supply pKi for NS(=O)(=O)c1ccc(-c2nn3cc(-c4cccc([N+](=O)[O-])c4)nc3s2)cc1
Result: 6.76

Q: Identify measured pKi associated with NS(=O)(=O)c1ccc(-c2nn3cc(-c4ccc(Br)cc4)nc3s2)cc1
Result: 6.04

Q: For the molecule NS(=O)(=O)c1ccc(-c2nc3scc(-c4ccc(Cl)cc4)n3n2)cc1 , give its measured pKi value.
Result: 5.77

Q: Return pKi for the following molecule: NS(=O)(=O)c1ccc(-c2nn3cc(-c4cccc(Br)c4)nc3s2)cc1
Result: 6.60

Q: Assign pKi to the following record: NS(=O)(=O)c1ccc(-c2nc3scc(-c4ccc(Br)cc4)n3n2)cc1
Result: 6.76

Q: Give the value of pKi reported for the following: NS(=O)(=O)c1ccc(-c2nn3cc(-c4ccc(-c5ccccc5)cc4)nc3s2)cc1
Result: 6.84

Q: Identify measured pKi associated with Cc1ccc(-c2cn3nc(-c4ccc(S(N)(=O)=O)cc4)sc3n2)cc1
Result: 6.56

Q: Let me know recorded pKi for NS(=O)(=O)c1ccc(-c2nc3scc(-c4cccc([N+](=O)[O-])c4)n3n2)cc1 , thanks.
Result: 6.69

Q: Give me measured pKi, please, for this molecule: NS(=O)(=O)c1ccc(-c2nn3cc(-c4ccc(Cl)cc4)nc3s2)cc1
Result: 5.92

Q: // fetch pKi given entry NS(=O)(=O)c1ccc(-c2nc3scc(-c4ccccc4)n3n2)cc1
Result: 6.58

Q: Specify measured pKi for NS(=O)(=O)c1ccc(-c2nn3cc(-c4ccccc4)nc3s2)cc1 .
Result: 6.68

Q: Look up pKi of Cc1ccc(-c2csc3nc(-c4ccc(S(N)(=O)=O)cc4)nn23)cc1 and report it.
Result: 7.07

Q: Give the measured pKi for COc1ccc(-c2csc3nc(-c4ccc(S(N)(=O)=O)cc4)nn23)cc1
Result: 6.83

Q: Identify measured pKi associated with NS(=O)(=O)c1ccc(-c2nc3scc(-c4ccc(-c5ccccc5)cc4)n3n2)cc1
Result: 6.88

Q: Could you please provide reported pKi for NS(=O)(=O)c1ccc(-c2nc3scc(-c4ccc(F)cc4)n3n2)cc1 ? Thanks!
Result: 6.63

Q: Specify pKi for NS(=O)(=O)c1ccc(-c2nn3cc(-c4ccc(F)cc4)nc3s2)cc1 and stop.
Result: 6.87
